System: K4 kissing-loop RNA reporter
TEST NAME: apparent KD of K4 kissing-loop reporter; higher = weaker reporter binding
REPORTED CONDITIONS: Eterna round: R107; input ligand: none
Listing: apparent KD of K4 kissing-loop reporter of selected sequences
Please format your answer as a value with the unit trailing.

Exercise: Using the record for UUUUAUUAGUAGUGAUGUUACUAAACUGAAGGAGCGAGAUUUAACUCAGGUAGGUCGCAGAAAAUCAAUUAAUUUAUAAAUUAAA [JR_SSArginiA_Sub011] , report its apparent KD of K4 kissing-loop reporter.
Key: 99.8 nM

Exercise: # iterate: GCAGUGAUGUUGCGGAUGUACAGUGGAGUGCGAGGACCGGUACGGCCGCCACUCGUACAGAACAAGCUAAUAUAUCGAUAGGUGA [X]
Key: 263 nM

Exercise: # iterate: UUGCUUCUACUAGGAUAUCAUCAGUCAUGUUCAAUGACACUCGAGUGAUGUUCGAUAGAAGCGAGAUGAGAAGGAGUACAAGCAG [FMB B SS t3]
Key: 159 nM

Exercise: # iterate: AAGCAGUCACUCGUAACCAUCGAAGAUGGUCGAGGACCGGUACGGCCGCCACUCGGAGUGAUGUUCCGAAGACUGCAAAAUAAAA [#SwitchBubble 12]
Key: 299 nM

Exercise: # iterate: UAAUGUGGCACAGGAUAUACUGAUUGGAGUGAUGUUCCAAACAUGGACGUGAGACUUUUACAAGAAGUAGAAGGGUGUUAGAUAU [Exclusion FMN B GF 20]
Key: 304 nM

Exercise: # iterate: GAUACGAAGCAGUGAUGUUGCUUAUGAGAAGGAGCGCACGAAAGUGCAGGUAGGUCGCUCAGCCAUGUGGACGAAAACGUCCACA [whbob_SS_Arginine_A_sa111]
Key: 97.4 nM

Exercise: # iterate: AAUAAUAAUAAAUAAAGAUUGAUGAGCAAACGAGGACCGGUACGGCCGCCACUCGAGUGAUGUUCGAGAAGCUCAUCAAUCAUAA [AK4.8 Exc Tryptophan A]
Key: 138 nM

Exercise: # iterate: CGAGUGAUGUUCGUUCGUUUAUUUCGGUGACAGGAUAUGCGGAAACGCAGAAGGGUCACCUUUGAGUUACCGGAAUUAACGUUAU [Ex FMN A 29]
Key: 623 nM

Exercise: # iterate: CAUCACGCAAUCACGGAUGCAAGCAUUGAUACCAGAACCGAUUAUUUCCCUUGGCAGCAACACGGAGUGAUGUUCCUAGCAUAUA [theeternabot_sameState_KL_Theo_A_21]
Key: 94 nM

Exercise: # iterate: GGUGUUGUUUGUGCUGUUUUCUUCGUUUCUCGAGGACCGGUACGGCCGCCACUCGAGUGAUGUUUGGGUAGCGAUGUUUGUUAGU [Bdazzled - #3 - Exc. Tryptophan A]
Key: 373 nM

Further cases:
Exercise: Using the record for AGCCGAAAGGCGAGUGCUGUCACUCCGGAAGGAGCGCUCGAAAGAGCAGGUAGGUCGCCGGAGUGAUGUUCCGGUGCAGCACUCA [Omei KL Arginine A Exc B v5] , report its apparent KD of K4 kissing-loop reporter.
Key: 1250 nM

Exercise: # iterate: AAAUAGCAGCAACGAGUGAUGUUCGACGAUACCAGCCUCGAUAGAGGCCCUUGGCAGCGUAAAUGAUCACAAAGCCAAGGGCUGC [#SwitchBubble 2]
Key: 458 nM

----------
System: MS2 coat protein
TEST NAME: apparent KD of MS2 coat protein; designed switch direction (-1 OFF switch, 1 ON switch): -1; higher = weaker reporter binding
REPORTED CONDITIONS: input ligand: microRNA oligo, concentration not stated
Listing: apparent KD of MS2 coat protein of selected sequences

Exercise: Using the record for CCCGUCGAUGUAGGAUAUGCCCGGGUCUCCCGGGCAGAAGGACAUGAGGAUCACCCAUGUUGAUGAGGAUCACCCAUCAAUGGG [Double but mutated MS2] (Eterna round: R96, puzzle: Exclusion NG 1) , report its apparent KD of MS2 coat protein.
Key: 15.8 nM

Further cases:
Exercise: Using the record for GCAGCAUAGUCGGAAACGACAGAACAUGAGGAUCACCCAUGUCAGGAUAUGGUCUGGAUUACAGGCCAGAAGGGACGAAGCUGC [Eli exng3 - 010] (Eterna round: R96, puzzle: Exclusion NG 3) , report its apparent KD of MS2 coat protein.
Key: 11.4 nM

Exercise: # iterate: UACAUGAGGAUCACCCAUGUUUUAUCAUGUGUAAUAAUAAUGUAGGAUAUGUAUUUAUUUAUUUAACAGAAGGACAAUAAUAAA [JMF's solution 3] (Eterna round: R96, puzzle: Exclusion NG 3)
Key: 435 nM

Exercise: # iterate: CUAAAUCAUGUAGGAUAUGCGUGGCGAAGCUAUGCAGAAGGACAUGAGGAUCACCCAUGUCAUUCCGUCUGCGUACAGACGGGA [Mat - Exclusion NG 1 - Mod of JL - D48] (Eterna round: R96, puzzle: Exclusion NG 1)
Key: 21 nM

Exercise: # iterate: AAGAAACAUGAGGAUCACCCAUGUGAGGAUAUGAAAAAGAAAAGAAAAGAAAGAAGGUUCAGAAGGCACAAAGG [salish99-ex1_r3_027] (Eterna round: R96, puzzle: Exclusion 1)
Key: 25.4 nM

Exercise: # iterate: UCACGGGAUUGAGGAUAUAUAUUAAUUUUUACAAUAGAAGGCAAAUUGUUAGUUUUUUCACUUUACAUGAGGAUCACCCAUGUU [JR_ExcBG1_Sub080] (Eterna round: R96, puzzle: Exclusion NG 1)
Key: 19.6 nM

Exercise: # iterate: ACAUGAGGAUCACCCAUGUACACGUAAUGGCUCAUGUAGAGUGAGGAUAUGUGAGACGAACGAGAACAGAAGGCACAAGACAGG [Deportation 9 - Jieux - Exclusion NG 3] (Eterna round: R96, puzzle: Exclusion NG 3)
Key: 30.1 nM

Exercise: # iterate: UAGAAGUCAGGAUAUCCAUGGCGGCACUUGCGUGGUGGCGUGGAGAAGGGACAUGAGGAUCACCCAUGUAAAGG [salish99-ex4-045] (Eterna round: R96, puzzle: Exclusion 4)
Key: 63.1 nM

Exercise: # iterate: ACAUGAGGAUCACCCAUGUAAACAUAAUGGCUGAUGUAGAGUCAGGAUAUGCGUGGCUAACAAUCGCAGAAGGGACAAGACUGG [Deportation 30 - Jieux - Exclusion NG 3] (Eterna round: R96, puzzle: Exclusion NG 3)
Key: 23.1 nM

----------
System: MS2 coat protein
TEST NAME: apparent KD of MS2 coat protein; designed switch direction (-1 OFF switch, 1 ON switch): -1; higher = weaker reporter binding
REPORTED CONDITIONS: input ligand: none
PROPERTY LABEL: apparent KD of MS2 coat protein (nM)
Please reply with the bare figure in nM and do not write the unit itself.

Exercise: Using the record for AUAUUAAUAGUAAGGAUAUGCGUAUAUAUAAUUAUGCAGAAGGUACAUGAGGAUCACCCAUGUAUUAAUGUGUA [LRO-BmodExc4-02-Oppy's Opus] (Eterna round: R97, puzzle: Brourd's mod of Exclusion 4) , report its apparent KD of MS2 coat protein.
Key: 13

Exercise: # iterate: AGUAAGCUAGGAUAUGCUUAGGGAAAGCCUUCCUUCCACAAACUUGAGGAUCACCCAAGUAGAAGGAGCUAAAU [jl-ex2.4.46 ViennaUCT mod] (Eterna round: R97, puzzle: Exclusion 2)
Key: 13.5

Exercise: # iterate: GUCCGGCGUGUAGGAUAUGGUUCCGUUUCGGUUCCAGAAGGACAUGAGGAUCACCCAUGUGCCUGUCGUCGGUCGUCACCGGGC [salish99_ExNG1_r04_220] (Eterna round: R96, puzzle: Exclusion NG 1)
Key: 14.8

Further cases:
Exercise: Using the record for UUGGUUGUGGUAGGAUAUCCGUUGGAAACCGUUGGAGAAGGACCACAGUCACUGGGUCUUUGUUUGGUGGAGUGGAAGAACCAU [pwkr exNG1 F6.19] (Eterna round: R96, puzzle: Exclusion NG 1) , report its apparent KD of MS2 coat protein.
Key: 349

----------
Listing: apparent KD of K4 kissing-loop reporter of selected sequences
Test system: K4 kissing-loop RNA reporter;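 also: bound reporter read as fluorescence of individual clusters on recovered sequencing chips by microscopy, with normalized cluster intensities fitted with a binding model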
TEST NAME: apparent KD of K4 kissing-loop reporter; higher = weaker reporter binding
REPORTED CONDITIONS: Eterna round: R107; input ligand: tryptophan 2.4 mM
Please reply with the bare figure in nM and do not write the unit itself.

Use these answered entries as a reference point.
Exercise: Using the record for UGUUAUGUAUCAGGAUAUUAGUGAUGUUUGUUUAUGUUAGUGAUGUUGAUAUUUGUUUUAUGUAUUUAAGAAGGGAUUGAGAUGU [dcdmullin] , report its apparent KD of K4 kissing-loop reporter.
Key: 50.9

Exercise: # iterate: AAUUUAUUAACUGAUACCAGACUUAAUUAAUUGUAAAUUACUAGUGAUGUUAGUGAUUCUGUCCCUUGGCAGCAGUAUUUAUUAA [JR_ExcTheophyB_Sub011]
Key: 92.5

Please find the next sequence below.
Exercise: Using the record for CGUUCCUCUGUCGAUACCAGCUUCAGUUGGCGGCCAGUGAUGUUGGUAUUGCCGAUGCCAAGCCCUUGGCAGCGAUAUGAGACCC [Aredi] , report its apparent KD of K4 kissing-loop reporter.
Key: 439
